- experiment: Volume of distribution at steady state in rat at 0.5 mg/kg, iv
- Format: ADME, organism-based
- condition_label: in vivo, read-out: Vdss
readout_label: Vd

Record "Cc1nc(C)c(-c2csc(Nc3ccc(C(=O)N4C5CCC4CN(c4ncc(C(F)(F)F)cn4)C5)cn3)n2)s1" , field Vd: 4.6 L/kg

====

- study_system: UniProtKB Q9ERZ8
- Sequence (Q9ERZ8 whole entry): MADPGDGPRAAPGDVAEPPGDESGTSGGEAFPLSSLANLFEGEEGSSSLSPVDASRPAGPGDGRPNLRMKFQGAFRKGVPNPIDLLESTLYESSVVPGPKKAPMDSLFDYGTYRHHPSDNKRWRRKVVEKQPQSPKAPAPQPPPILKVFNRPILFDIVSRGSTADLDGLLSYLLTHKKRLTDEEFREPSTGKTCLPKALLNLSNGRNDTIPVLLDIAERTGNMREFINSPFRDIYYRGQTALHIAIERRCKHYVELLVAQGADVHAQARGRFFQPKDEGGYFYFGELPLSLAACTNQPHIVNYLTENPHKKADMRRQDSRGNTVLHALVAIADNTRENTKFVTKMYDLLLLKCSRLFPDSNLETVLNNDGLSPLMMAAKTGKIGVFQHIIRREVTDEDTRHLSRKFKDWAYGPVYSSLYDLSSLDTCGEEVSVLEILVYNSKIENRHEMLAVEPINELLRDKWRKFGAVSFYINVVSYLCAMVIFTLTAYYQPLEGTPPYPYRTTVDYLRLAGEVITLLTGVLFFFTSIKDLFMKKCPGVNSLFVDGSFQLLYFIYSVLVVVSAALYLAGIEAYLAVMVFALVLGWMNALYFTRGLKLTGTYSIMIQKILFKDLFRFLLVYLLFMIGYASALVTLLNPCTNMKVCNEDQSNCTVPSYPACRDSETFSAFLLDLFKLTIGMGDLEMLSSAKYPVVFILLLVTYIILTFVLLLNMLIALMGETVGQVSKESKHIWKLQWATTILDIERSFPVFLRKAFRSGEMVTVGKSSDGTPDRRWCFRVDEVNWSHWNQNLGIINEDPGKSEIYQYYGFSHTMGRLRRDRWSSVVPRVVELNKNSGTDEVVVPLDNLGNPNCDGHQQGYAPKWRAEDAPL
- experiment: Antagonist activity at rat TRPV4 assessed as inhibition of 4alpha-PDD-induced activation
readout_label: pIC50
One number for each entry, as −log10 of the molar value.

Cc1nc(C)c(-c2csc(Nc3ccc(C(=O)N4[C@@H]5CC[C@H]4C/C(=N/OCCCO)C5)cn3)n2)s1; 7.24
Cc1nc(C)c(-c2csc(Nc3ccc(C(=O)N4C5CCC4CC(=O)C5)cn3)n2)s1; 6.44
Cc1nc(C)c(-c2csc(Nc3ccc(C(=O)N4[C@@H]5CC[C@H]4C[C@@H](Oc4ncc(C(F)(F)F)cn4)C5)cn3)n2)s1; 6.92
Cc1nc(C)c(-c2csc(Nc3ccc(C(=O)N4[C@@H]5CC[C@H]4C/C(=N/OC[C@@H](O)C(F)(F)F)C5)cn3)n2)s1; 7.54
CC(=O)N1CC2CCC(C1)N2C(=O)c1ccc(Nc2nc(-c3sc(C)nc3C)cs2)nc1; 6.22
Cc1nc(C)c(-c2csc(Nc3ccc(C(=O)N4C5CCC4CN(c4ccc(Cl)cn4)C5)cn3)n2)s1; 7.70
COC(=O)N1CCN(C(=O)c2ccc(Nc3nc(-c4sc(C)nc4C)cs3)nc2)CC1; 5.96
Cc1nc(C)c(-c2csc(Nc3ccc(C(=O)N4[C@@H]5CC[C@H]4C/C(=N/OCC(F)(F)F)C5)cn3)n2)s1; 7.74

Quick batch: pIC50 for everything below.
1. Cc1nc(C)c(-c2csc(Nc3ccc(C(=O)N4[C@@H]5CC[C@H]4C[C@@H](OCCO)C5)cn3)n2)s1
2. COC(=O)N1CC2CCC(C1)N2C(=O)c1ccc(Nc2nc(-c3sc(C)nc3C)cs2)nc1
3. Cc1nc(C)c(-c2csc(Nc3ccc(C(=O)N4C5CCC4CN(c4ncc(C(F)(F)F)cn4)C5)cn3)n2)s1

A.
6.70
7.28
8.07

====

- study_system: UniProt Q9ERZ8
- experiment: Antagonist activity at rat TRPV4 assessed as inhibition of hypotonicity-induced activation
readout_label: pIC50
Give bare numbers, as −log10 of the molar value.

Record "Cc1nc(C)c(-c2csc(Nc3ccc(C(=O)N4C5CCC4CN(c4ncc(C(F)(F)F)cn4)C5)cn3)n2)s1" , field pIC50: 8.68

====

- experiment: Cmax in rat at 1 mg/kg, po
- Format: ADME, organism-based
- Parameters: dose 1 mg/kg, route oral
- condition_label: in vivo
readout_label: Cmax (ng/mL)
Numbers only, in ng/mL.

Record "Cc1nc(C)c(-c2csc(Nc3ccc(C(=O)N4C5CCC4CN(c4ncc(C(F)(F)F)cn4)C5)cn3)n2)s1" , field Cmax: 55.2

====

So I've got a bunch of compounds here, and I need their IC50 values.
- study_system: Transient receptor potential cation channel subfamily V member 4 (Homo sapiens, UniProt Q9HBA0)
- Sequence (Q9HBA0 whole entry): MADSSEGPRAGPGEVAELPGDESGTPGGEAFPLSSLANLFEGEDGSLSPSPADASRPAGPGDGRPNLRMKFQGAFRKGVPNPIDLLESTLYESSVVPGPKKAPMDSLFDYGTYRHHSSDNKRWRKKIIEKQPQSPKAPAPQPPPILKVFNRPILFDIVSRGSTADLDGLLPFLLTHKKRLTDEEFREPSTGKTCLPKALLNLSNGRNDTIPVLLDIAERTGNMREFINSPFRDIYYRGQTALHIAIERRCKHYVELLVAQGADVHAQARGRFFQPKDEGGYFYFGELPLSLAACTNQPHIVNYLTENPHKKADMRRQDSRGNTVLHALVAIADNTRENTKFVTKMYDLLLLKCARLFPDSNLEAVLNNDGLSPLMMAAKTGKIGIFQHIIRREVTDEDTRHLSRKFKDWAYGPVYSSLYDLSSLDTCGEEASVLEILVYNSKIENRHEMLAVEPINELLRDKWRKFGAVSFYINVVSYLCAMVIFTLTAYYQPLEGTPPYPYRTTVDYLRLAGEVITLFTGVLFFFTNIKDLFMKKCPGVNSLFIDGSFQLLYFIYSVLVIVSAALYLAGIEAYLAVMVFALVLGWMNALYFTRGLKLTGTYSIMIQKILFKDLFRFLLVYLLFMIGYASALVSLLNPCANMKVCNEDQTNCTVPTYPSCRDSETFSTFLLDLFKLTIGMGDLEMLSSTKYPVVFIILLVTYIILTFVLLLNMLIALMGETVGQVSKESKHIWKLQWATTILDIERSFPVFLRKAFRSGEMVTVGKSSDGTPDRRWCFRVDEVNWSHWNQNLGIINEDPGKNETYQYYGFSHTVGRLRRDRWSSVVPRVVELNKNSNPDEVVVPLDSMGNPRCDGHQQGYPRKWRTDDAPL
- experiment: Antagonist activity at human TRPV4 assessed as inhibition of 4alpha-PDD-induced activation
Numbers only, in nM.

Cc1nc(C)c(-c2csc(Nc3ccc(C(=O)N4[C@@H]5CC[C@H]4C/C(=N/OCCCO)C5)cn3)n2)s1; 2.9
Cc1nc(C)c(-c2csc(Nc3ccc(C(=O)N4C5CCC4CN(c4ncc(Cl)cn4)C5)cn3)n2)s1; 0.3
Cc1nc(C)c(-c2csc(Nc3ccc(C(=O)N4[C@@H]5CC[C@H]4C[C@@H](O)C5)cn3)n2)s1; 32
COC(=O)N1CCN(C(=O)c2ccc(Nc3nc(-c4sc(C)nc4C)cs3)nc2)CC1; 37
CCNC(=O)O[C@H]1C[C@H]2CC[C@@H](C1)N2C(=O)c1ccc(Nc2nc(-c3sc(C)nc3C)cs2)nc1; 1.9

Quick batch: IC50 for everything below.
1. Cc1nc(C)c(-c2csc(Nc3ccc(C(=O)N4[C@@H]5CC[C@H]4C/C(=N/OC4CCN(C)CC4)C5)cn3)n2)s1
2. Cc1c(C(=O)Nc2cccc(C(F)(F)F)c2)cc(-c2ccccc2)n1CCCN1CCOCC1
3. CO[C@H]1C[C@H]2CC[C@@H](C1)N2C(=O)c1ccc(Nc2nc(-c3sc(C)nc3C)cs2)nc1

A.
4.5
57
2.4

====

- experiment: Stability in human liver microsomes assessed as parent compound remaining after 30 mins in presence or absence of NADPH
- Type: ADME, microsome
- condition_label: read-out: Stability
Please assign condition not met whenever remaining at 0.5 h is at or above 60%, and condition met whenever it is below.

COC(=O)N1CC2CCC(C1)N2C(=O)c1ccc(Nc2nc(-c3sc(C)nc3C)cs2)nc1; condition met

Q. Quick check: remaining at 0.5 h of "CO/N=C1\C[C@H]2CC[C@@H](C1)N2C(=O)c1ccc(Nc2nc(-c3sc(C)nc3C)cs2)nc1" under 60%?
A. condition not met

Q. Quick check: remaining at 0.5 h of "CNC(=O)N1CC2CCC(C1)N2C(=O)c1ccc(Nc2nc(-c3sc(C)nc3C)cs2)nc1" under 60%?
A. condition not met

Q. Quick check: remaining at 0.5 h of "Cc1nc(C)c(-c2csc(Nc3ccc(C(=O)N4C5CCC4CN(CC(F)(F)F)C5)cn3)n2)s1" under 60%?
A. condition met

Q. Quick check: remaining at 0.5 h of "Cc1nc(C)c(-c2csc(Nc3ccc(C(=O)N4[C@@H]5CC[C@H]4C/C(=N/OCCO)C5)cn3)n2)s1" under 60%?
A. condition not met

Q. Quick check: remaining at 0.5 h of "Cc1nc(C)c(-c2csc(Nc3ccc(C(=O)N4C5CCC4CNC5)cn3)n2)s1" under 60%?
A. condition not met

Q. Quick check: remaining at 0.5 h of "Cc1nc(C)c(-c2csc(Nc3ccc(C(=O)N4[C@@H]5CC[C@H]4C/C(=N/O)C5)cn3)n2)s1" under 60%?
A. condition not met

====

- study_system: UniProtKB Q9HBA0
- experiment: Antagonist activity at human TRPV4 assessed as inhibition of 4alpha-PDD-induced activation
readout_label: log10 of IC50 (log10 of the value in nM)
In plain terms, each number is the log10 of measured IC50 in nM.

Below: 4 molecules and their reported log10 of IC50.
CC(=O)N1CC2CCC(C1)N2C(=O)c1ccc(Nc2nc(-c3sc(C)nc3C)cs2)nc1; 1.51
Cc1nc(C)c(-c2csc(Nc3ccc(C(=O)N4C5CNCC4COC5)cn3)n2)s1; 0.51
CC(=O)N[C@H]1C[C@H]2CC[C@@H](C1)N2C(=O)c1ccc(Nc2nc(-c3sc(C)nc3C)cs2)nc1; 1.90
Cc1nc(C)c(-c2csc(Nc3ccc(C(=O)N4[C@@H]5CC[C@H]4C[C@@H](NC(=O)CC(F)(F)F)C5)cn3)n2)s1; 1.28

Quick batch: log10 of IC50 for everything below.
1. Cc1nc(C)c(-c2csc(Nc3ccc(C(=O)N4C5COCC4CC(=O)C5)cn3)n2)s1
2. Cc1nc(C)c(-c2csc(Nc3ccc(C(=O)N4[C@@H]5CC[C@H]4C/C(=N/OCCO)C5)cn3)n2)s1
3. CO/N=C1\C[C@H]2CC[C@@H](C1)N2C(=O)c1ccc(Nc2nc(-c3sc(C)nc3C)cs2)nc1
4. COC(=O)N1CC2CCCC(C1)N2C(=O)c1ccc(Nc2nc(-c3sc(C)nc3C)cs2)nc1
5. Cc1nc(C)c(-c2csc(Nc3ccc(C(=O)N4[C@@H]5CC[C@H]4C[C@@H](CO)C5)cn3)n2)s1

A.
1. 1.28
2. 0.78
3. 0.00
4. 0.26
5. 1.61

Quick batch: log10 of IC50 for everything below.
1. Cc1nc(C)c(-c2csc(Nc3ccc(C(=O)N4C5CCC4CN(c4ccc(Cl)cc4)C5)cn3)n2)s1
2. Cc1nc(C)c(-c2csc(Nc3ccc(C(=O)N4C5CCC4CN(c4ccc(Cl)cn4)C5)cn3)n2)s1
3. Cc1nc(C)c(-c2csc(Nc3ccc(C(=O)N4C5CCC4CN(CC(F)(F)F)C5)cn3)n2)s1
4. Cc1nc(C)c(-c2csc(Nc3ccc(C(=O)N4[C@@H]5CC[C@H]4C/C(=N/OC[C@@H](O)C(F)(F)F)C5)cn3)n2)s1
5. Cc1nc(C)c(-c2csc(Nc3ccc(C(=O)N4[C@@H]5CC[C@H]4C[C@@H](OCCO)C5)cn3)n2)s1
6. Cc1nc(C)c(-c2csc(Nc3ccc(C(=O)N4[C@@H]5CC[C@H]4C/C(=N/OCC(N)=O)C5)cn3)n2)s1

A.
[0.51, -0.05, 0.32, 0.04, 0.79, 1.38]

====

- experiment: Stability in rat liver microsomes assessed as parent compound remaining after 30 mins in presence or absence of NADPH
- Format: ADME, microsome
- condition_label: read-out: Stability
Please assign not met whenever remaining at 0.5 h is at or above 50%, and met whenever it is below.

Sample answers from the record:
Cc1nc(C)c(-c2csc(Nc3ccc(C(=O)N4C5CCC4CN(c4ncc(Cl)cn4)C5)cn3)n2)s1; not met
Cc1nc(C)c(-c2csc(Nc3ccc(C(=O)N4[C@@H]5CC[C@H]4CC(=NOCC(C)(C)O)C5)cn3)n2)s1; not met
Cc1nc(C)c(-c2csc(Nc3ccc(C(=O)N4C5CNCC4COC5)cn3)n2)s1; not met
Cc1nc(C)c(-c2csc(Nc3ccc(C(=O)N4[C@@H]5CC[C@H]4C/C(=N/OCCO)C5)cn3)n2)s1; not met
Cc1nc(C)c(-c2csc(Nc3ccc(C(=O)N4C5CCC4CN(C4CCCCC4)C5)cn3)n2)s1; met

Q. Quick check: remaining at 0.5 h of "Cc1nc(C)c(-c2csc(Nc3ccc(C(=O)N4[C@@H]5CC[C@H]4C/C(=N/OCCCO)C5)cn3)n2)s1" under 50%?
A. not met

Q. Quick check: remaining at 0.5 h of "Cc1nc(C)c(-c2csc(Nc3ccc(C(=O)N4C5CCC4CN(CC(F)(F)F)C5)cn3)n2)s1" under 50%?
A. met

Q. Quick check: remaining at 0.5 h of "COC(=O)N1CCN(C(=O)c2ccc(Nc3nc(-c4sc(C)nc4C)cs3)nc2)CC1" under 50%?
A. not met

Q. Quick check: remaining at 0.5 h of "COC(=O)N1CC2CCCC(C1)N2C(=O)c1ccc(Nc2nc(-c3sc(C)nc3C)cs2)nc1" under 50%?
A. met

Q. Quick check: remaining at 0.5 h of "Cc1nc(C)c(-c2csc(Nc3ccc(C(=O)N4C5CCC4CN(c4ccc(Cl)cn4)C5)cn3)n2)s1" under 50%?
A. not met

Q. Quick check: remaining at 0.5 h of "Cc1nc(C)c(-c2csc(Nc3ccc(C(=O)N4C5CCC4CNC5)cn3)n2)s1" under 50%?
A. not met

Q. Quick check: remaining at 0.5 h of "Cc1nc(C)c(-c2csc(Nc3ccc(C(=O)N4[C@@H]5CC[C@H]4C/C(=N/O)C5)cn3)n2)s1" under 50%?
A. met

Origin of the recorded values: ChEMBL document CHEMBL3853343
